- measurement.target: T1, hLRRC33-proTGFβ1 (Homo sapiens, UniProt P01137)
- T1 construct: made in house
- T1 sequence (P01137 30-390): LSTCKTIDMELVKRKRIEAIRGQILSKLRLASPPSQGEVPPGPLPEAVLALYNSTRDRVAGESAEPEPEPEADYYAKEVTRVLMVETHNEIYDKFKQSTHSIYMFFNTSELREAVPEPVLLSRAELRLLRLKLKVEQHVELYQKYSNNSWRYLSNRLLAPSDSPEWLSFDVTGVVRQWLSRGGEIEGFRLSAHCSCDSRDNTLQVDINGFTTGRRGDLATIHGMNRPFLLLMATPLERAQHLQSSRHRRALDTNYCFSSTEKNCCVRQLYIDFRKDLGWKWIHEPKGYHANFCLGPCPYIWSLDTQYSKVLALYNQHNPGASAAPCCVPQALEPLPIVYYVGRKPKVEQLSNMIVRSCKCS
- T1 sequence (Q86YC3 19-650 partner limits assumed): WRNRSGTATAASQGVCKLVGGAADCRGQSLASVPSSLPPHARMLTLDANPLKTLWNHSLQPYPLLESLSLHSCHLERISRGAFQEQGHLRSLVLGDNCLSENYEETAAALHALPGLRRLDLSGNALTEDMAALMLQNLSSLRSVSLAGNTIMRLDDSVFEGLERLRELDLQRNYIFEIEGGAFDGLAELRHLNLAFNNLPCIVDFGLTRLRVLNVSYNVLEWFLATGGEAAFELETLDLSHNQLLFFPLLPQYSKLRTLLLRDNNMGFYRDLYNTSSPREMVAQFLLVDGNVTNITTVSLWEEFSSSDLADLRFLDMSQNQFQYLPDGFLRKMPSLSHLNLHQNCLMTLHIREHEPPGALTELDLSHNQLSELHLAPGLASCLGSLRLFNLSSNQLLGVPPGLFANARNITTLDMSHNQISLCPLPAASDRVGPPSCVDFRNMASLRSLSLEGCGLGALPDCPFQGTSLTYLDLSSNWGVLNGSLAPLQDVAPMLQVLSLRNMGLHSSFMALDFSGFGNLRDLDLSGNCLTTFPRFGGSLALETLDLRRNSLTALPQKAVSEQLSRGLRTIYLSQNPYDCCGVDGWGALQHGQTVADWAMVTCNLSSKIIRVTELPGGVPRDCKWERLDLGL
- measurement.protocol: MSD-SET solution equilibrium titration binding
- condition.notes: MSD-SET at equilibrium, hIgG4, human complex; in M
For each entry below, report its (F) hLRRC33, Cell-associated proTGFβ1 KD value.
Give the figure only, with no unit attached.

Given item Ab20: monoclonal antibody; VH SEQ ID NO: 251, VL SEQ ID NO: 241 (antibody, V domains shown) VH: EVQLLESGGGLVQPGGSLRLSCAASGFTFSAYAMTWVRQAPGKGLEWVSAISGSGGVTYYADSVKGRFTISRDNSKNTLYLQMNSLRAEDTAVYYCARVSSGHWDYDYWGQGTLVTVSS VL: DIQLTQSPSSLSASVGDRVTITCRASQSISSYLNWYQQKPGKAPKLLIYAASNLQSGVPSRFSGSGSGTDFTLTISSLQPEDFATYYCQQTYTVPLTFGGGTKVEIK , the value recorded as its (F) hLRRC33, Cell-associated proTGFβ1 KD is 1.60E−09

Data point: Ab32: monoclonal antibody; VH SEQ ID NO: 140, VL SEQ ID NO: 15 (antibody, V domains shown) VH: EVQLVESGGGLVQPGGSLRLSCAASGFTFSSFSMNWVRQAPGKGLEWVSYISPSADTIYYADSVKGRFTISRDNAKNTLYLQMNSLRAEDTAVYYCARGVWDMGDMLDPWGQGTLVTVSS VL: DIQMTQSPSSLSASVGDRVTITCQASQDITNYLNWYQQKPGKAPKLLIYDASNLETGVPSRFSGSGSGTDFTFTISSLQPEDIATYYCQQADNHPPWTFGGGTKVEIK ; (F) hLRRC33, Cell-associated proTGFβ1 KD = 8.70E−11

Consider Ab12: monoclonal antibody; VH SEQ ID NO: 237, VL SEQ ID NO: 241 (antibody, V domains shown) VH: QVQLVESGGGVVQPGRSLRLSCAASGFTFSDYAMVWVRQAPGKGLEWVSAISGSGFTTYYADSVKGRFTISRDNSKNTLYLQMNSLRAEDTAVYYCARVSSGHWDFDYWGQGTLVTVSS VL: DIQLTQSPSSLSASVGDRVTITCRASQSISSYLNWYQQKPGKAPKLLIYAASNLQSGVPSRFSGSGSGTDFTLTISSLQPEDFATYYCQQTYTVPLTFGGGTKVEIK . Its measured (F) hLRRC33, Cell-associated proTGFβ1 KD is 3.20E−09

According to the records, this molecule Ab29: monoclonal antibody; VH SEQ ID NO: 137, VL SEQ ID NO: 15 (antibody, V domains shown) VH: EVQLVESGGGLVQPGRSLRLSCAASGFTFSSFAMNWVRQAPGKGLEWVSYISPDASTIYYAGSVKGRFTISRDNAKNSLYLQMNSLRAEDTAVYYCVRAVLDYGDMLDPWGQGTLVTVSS VL: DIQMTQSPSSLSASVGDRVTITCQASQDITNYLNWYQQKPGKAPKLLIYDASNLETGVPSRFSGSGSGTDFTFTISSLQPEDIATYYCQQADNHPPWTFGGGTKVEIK displays (F) hLRRC33, Cell-associated proTGFβ1 KD of 4.30E−11

Lab note: measured (F) hLRRC33, Cell-associated proTGFβ1 KD of Ab26: monoclonal antibody; VH SEQ ID NO: 134, VL SEQ ID NO: 15 (antibody, V domains shown) VH: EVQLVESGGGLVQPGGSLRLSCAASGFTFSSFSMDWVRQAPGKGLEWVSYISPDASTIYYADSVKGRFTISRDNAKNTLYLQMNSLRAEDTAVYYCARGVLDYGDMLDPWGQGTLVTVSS VL: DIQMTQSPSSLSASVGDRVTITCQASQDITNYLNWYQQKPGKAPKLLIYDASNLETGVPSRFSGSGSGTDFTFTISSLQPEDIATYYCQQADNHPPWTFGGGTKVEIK was 1.30E−10

The reported (F) hLRRC33, Cell-associated proTGFβ1 KD of the molecule Ab24: monoclonal antibody; VH SEQ ID NO: 132, VL SEQ ID NO: 15 (antibody, V domains shown) VH: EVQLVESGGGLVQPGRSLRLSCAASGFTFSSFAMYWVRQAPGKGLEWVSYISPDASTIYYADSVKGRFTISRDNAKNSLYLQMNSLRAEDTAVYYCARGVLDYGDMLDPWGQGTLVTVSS VL: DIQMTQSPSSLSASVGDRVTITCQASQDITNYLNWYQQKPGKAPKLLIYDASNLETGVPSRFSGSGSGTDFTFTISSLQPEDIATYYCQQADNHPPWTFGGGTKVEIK was 1.80E−10

FYI, the data here is from patent US11130803B2.
